- target_desc: γ-secretase complex (Homo sapiens, UniProt P49768)
- experiment_summary: APP-C99 counter assay (GSI reporter assay)
- Assay type: cell-based
- stated_conditions: 25 µM; sheet "conf vs counter 25 µM"; same values given as % of DMSO in sheet "3p-DR in % of DMSO counter"
- Protocol: To this end, we used a previously established reporter gene-based GSI assay (APP-C99) (Fig. 3A), which measures γ-secretase activity through cleavage of amyloid precursor protein (APP), another protein processed by the γ-secretase complex[24] […] A DMSO plate was read before measuring luciferase activity of compound spotted plates. […] The area-under-the-curve (AUC) was calculated on dose–response curves using Graphpad Prism.
Binary call on Counter screen (Hek APP-C99) with cut-off 100: strictly below means criterion met, and equality or higher means criterion not met.

molecule: Cc1ccc(NC(=O)c2cnc(SCc3ccc(F)cc3)n(C)c2=O)cc1C [CBK287674]
category_label: criterion met
--
molecule: O=C(O)c1c2c(nc3ccccc13)C(=Cc1ccc3c(c1)OCCO3)CC2 [CBK297479]
category_label: criterion met
--
molecule: COc1cc(Nc2cc(-c3ccccc3N(C)C)ncn2)cc(OC)c1OC [CBK090702]
category_label: criterion not met
--
molecule: NC(=O)c1[nH]nc(C2OC(CO)C(O)C2O)c1O (centres unmarked) [CBK201236]
category_label: criterion not met

Shifting focus to the molecule that follows.
Prompt: Find out if reported Counter screen (Hek APP-C99) for O=C(NC(Nc1cccc(C(F)(F)F)c1)C(=O)c1ccccc1)c1ccc(Cl)cc1 (centres unmarked) [CBK263585] is less than 100
Completion: criterion met

Values from paper PMC13242511
